Numbers sourced from patent US20260085053A1.

Target: SIK3 kinase (aa59-365, Thermo Fisher) (Homo sapiens)
Construct: SIK3 kinase (aa59-365, Thermo Fisher); purchased Thermo Fisher
Sequence (Q9Y2K2 59-365): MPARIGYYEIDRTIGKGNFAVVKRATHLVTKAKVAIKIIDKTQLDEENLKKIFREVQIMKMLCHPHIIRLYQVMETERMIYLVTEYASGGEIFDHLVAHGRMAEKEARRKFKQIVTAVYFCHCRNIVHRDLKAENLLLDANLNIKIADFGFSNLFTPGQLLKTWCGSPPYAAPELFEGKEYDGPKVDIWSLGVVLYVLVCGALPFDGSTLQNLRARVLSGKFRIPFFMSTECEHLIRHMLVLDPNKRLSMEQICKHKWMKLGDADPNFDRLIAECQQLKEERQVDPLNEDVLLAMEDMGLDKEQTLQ
Assay: Biochemical activities determination for SIK3 protein (TR-FRET)
Details: 125 uM ATP, 0.5 μM STK1 substrate
Measured Parameter: IC50 (nM)

In the examples that follow, each entry is paired with its recorded IC50.
{"Compound": "COc1cc(-c2coc3cc(OCCN4CCC(C)(C)C4)ccc23)cc(OC(F)F)c1C(=O)N[C@@H]1C[C@@H]1F [Compound 93]", "IC50 (nM)": 60}
{"Compound": "COc1cc(-c2coc3cc(-c4cnn(C)c4)ccc23)cc2c1C(=O)N(C1CC1)CC2 [Compound 27]", "IC50 (nM)": 72}
{"Compound": "COc1cc(-c2coc3cc(-c4ccc(C)nn4)ccc23)cc2c1C(=O)N(CC(F)(F)F)CC2 [Example 8]", "IC50 (nM)": 304}

A: COc1cc(-c2coc3cc(OCCN4CCCC4)ccc23)cc(OC(F)F)c1C(=O)N[C@@H]1C[C@H]1F [Compound 97]
B: COc1cc(-c2coc3cc(-c4cn(C)nn4)ccc23)cc2c1C(=O)N(CC(F)(F)F)CC2 [Compound 17]
C: COc1cc(-c2coc3cc(OCCCN4CCN(C)CC4)ccc23)cc(OC(F)F)c1C(=O)N[C@@H]1C[C@@H]1F [Compound 85]
Data request: Order field: IC50 | Direction: descending (largest first) Answer format: list of labels, ordered as asked.
Data returned: A, B, C
(A: 289 nM, B: 79 nM, C: 32.8 nM)
